Test system: PC-3 prostate
Test: NCI-60 one-dose screen, 48 h (100 = growth as untreated, 0 = no growth, -100 = all killed)
Details: 10 µM unless noted
The panel holds about 83,000 compounds, 20% with a hit somewhere; the sample as a whole holds those more often.
endpoint_name: growth (%)
Note: unit % is implicit; provide only the numeric part.

Answered examples (2):
input_smiles | endpoint_name | observed_result
CCc1c2c(nc3ccc(OC(=O)OCc4ccc(B5OC(C)(C)C(C)(C)O5)cc4)cc13)-c1cc3c(c(=O)n1C2)COC(=O)[C@]3(O)CC | growth | 14.9
COc1ccc(/C=c2\nc3n(-c4ccccc4)c4nc5c6c(sc5c(=N)n4n-3c2=O)CCCC6)cc1 | growth | 63.5

Now look at this entry.
What value of growth has been recorded for this entry: Cc1cc(NCCCCNc2ccnc3cc(Cl)ccc23)nc(Nc2ccc(C(=O)N3CCCC3)cc2)n1
35.6

----------
Tested on: DU-145 prostate
Experiment: NCI-60 one-dose screen, 48 h (100 = growth as untreated, 0 = no growth, -100 = all killed)
Conditions: 10 µM unless noted
The panel holds about 83,000 compounds, 20% with a hit somewhere; the sample as a whole holds those more often.
Lab note: anything with growth below 80% is marked satisfied; values at 80% or higher are marked not satisfied.

compound | discrete_label
CC1CC2Oc3ccc(Cl)cc3C(=O)N2O1 (stereo not given) | not satisfied
NC[C@H](O)c1ccc(O)c(O)c1 | not satisfied
Cc1cc[c-]cc1.Fc1c[c-]c(-c2ccccn2)c(F)c1.[Pt+2].c1ccc(P(C[PH+](c2ccccc2)c2ccccc2)c2ccccc2)cc1 | satisfied

Just wondering, is growth of O=[N+]([O-])c1ccc(Sc2cccc[n+]2[O-])c2nonc12 below 80%?
satisfied

----------
Test system: TK-10 renal
Assay: NCI-60 one-dose screen, 48 h
Conditions: 10 µM unless noted
This is part of a sample that, as a whole, favours compounds with a hit. Of some 83,000 tested, about 20% had one in any assay. Active and inactive are the calls of the source. The calls were made as follows: active = growth percent below 10; inactive = the rest.
Hi! Could you answer with just one of these? T = active, F = inactive

compound | discrete_label
Cc1c(C)c2c(c(C)c1OCC(=O)O)CC[C@@](C)(CCC[C@@H](C)CCC[C@@H](C)CCCC(C)C)O2 | T
COc1ccc(-c2cc(-c3cc(OC)c(OC)c(OC)c3)c(C#N)c(N3CCOCC3)n2)cc1O | F

Could you please tell me the result logged for CN1CCN(CCCOc2ccc3nc(Nc4ccc(F)c(F)c4)ccc3c2)CC1 in this assay?
F

Could you please tell me the result logged for Cc1ccc(-c2cc(-c3cccnc3)[nH]c(=O)c2C#N)cc1 in this assay?
F

Could you please tell me the result logged for O=C(/C=C/c1ccc(Cl)nc1)c1ccc(Cl)cc1Cl in this assay?
F

Could you please tell me the result logged for Nc1n[nH]c2cc(F)c([C@@H]3Nc4c(F)cc5[nH]ncc5c4[C@H]4C5CCC(C5)[C@@H]34)cc12 (stereo partly specified) in this assay?
F

Could you please tell me the result logged for O=c1c2cc(F)ccc2sc2c(NCCCN3CCCC3)nc3ccccc3c12 in this assay?
F

Could you please tell me the result logged for COc1cc(-c2n/c(=C\c3c(O)[nH]c4ccc(Cl)cc34)cc3c2=Nc2ccccc2-3)cc(OC)c1OC in this assay?
T

Could you please tell me the result logged for COC(=O)[C@]12CC[C@@H](C)[C@H](C)[C@@H]1C1=CC[C@@H]3[C@@]4(C)C(C=O)=C[C@@](C)(CO)[C@@H]4[C@H](O)C[C@@]3(C)[C@]1(C)CC2 in this assay?
T

Could you please tell me the result logged for Cc1ccc(NS(=O)(=O)c2ccc3c(c2)C2OCCC2C(c2ccc(C(=O)C(C)C)cc2)N3)cc1C (stereo unspecified) in this assay?
F

Could you please tell me the result logged for CCCCCCCCCCCCCCCCCC1=NCCN1CCOC1=C(Cl)C(=O)c2ccccc2C1=O in this assay?
F
